# Tested on: Escherichia coli
# Protocol Notes: Antimicrobial activity against quinolone and penicillin-resistant Escherichia coli after 24 hrs by broth microdilution method
# Format: functional
Active and inactive are the calls of the source. No cut-off for these calls is given here.
Reported Metric: MIC

# annotated cases, reported MIC shown
{"columns": ["Compound", "MIC"],
 "data": [
  ["O=C(O)c1cn(C2CC2)c2c(cc(F)c3c4ccccc4[nH]c32)c1=O", "> 100 µg/mL"],
  ["CO/N=C1\\CN(c2nc3c(cc2F)c(=O)c(C(=O)O)cn3C2CC2)CC1CN (stereo not drawn) [GEMIFLOXACIN]", "50 µg/mL"],
  ["C[C@H]1COc2c(N3CCN(C)CC3)c(F)cc3c(=O)c(C(=O)O)cn1c23.C[C@H]1COc2c(N3CCN(C)CC3)c(F)cc3c(=O)c(C(=O)O)cn1c23.O [LEVOFLOXACIN]", "25 µg/mL"],
  ["COc1ccc2c(c1)[nH]c1c2c(F)cc2c(=O)c(C(=O)O)cn(C3CC3)c21", "inactive"],
  ["Cc1ccc2c(c1)[nH]c1c2c(F)cc2c(=O)c(C(=O)O)cn(C3CC3)c21", "inactive"]
]}

What does the record list as MIC for "O=C(O)c1cn(C2CC2)c2c(cc(F)c3c4ccc(F)cc4[nH]c32)c1=O" ?
> 100 µg/mL

What does the record list as MIC for "O=C(O)c1cn(C2CC2)c2c(cc(F)c3c2[nH]c2ccsc23)c1=O" ?
> 100 µg/mL

What does the record list as MIC for "COc1c(C)cc2c([nH]c3c2c(F)cc2c(=O)c(C(=O)O)cn(C4CC4)c23)c1C" ?
inactive

====

# System: Acinetobacter baumannii
# Protocol Notes: Antimicrobial activity against Acinetobacter baumannii ATCC 19606 after 24 hrs by broth microdilution method
# Type: functional
# Condition Set: ATCC 19606, 24 h
Reported Metric: MIC (µg/mL)
Entry rule: numbers only, all in µg/mL.

{"columns": ["Chemical String", "Reported Metric", "Readout Number"],
 "data": [
  ["O=C(O)c1cn(C2CC2)c2c(cc(F)c3c4ccccc4[nH]c32)c1=O", "MIC", 12],
  ["C[C@H]1COc2c(N3CCN(C)CC3)c(F)cc3c(=O)c(C(=O)O)cn1c23.C[C@H]1COc2c(N3CCN(C)CC3)c(F)cc3c(=O)c(C(=O)O)cn1c23.O", "MIC", 0.15]
]}

Kindly review the next compound as well.
What does the record list as MIC for "COc1ccc2c(c1)[nH]c1c2c(F)cc2c(=O)c(C(=O)O)cn(C3CC3)c21" ?
50

====

# Protocol Notes: Inhibition of Escherichia coli DNA topoisomerase-4-mediated decatenation of kinetoplast DNA by electrophoresis
Reported Metric: log10 of IC50 (log10 of the value in µg/mL)
Please keep in mind that the values are log10 of IC50 expressed in µg/mL.

# annotated cases, reported log10 of IC50 shown
{"columns": ["Chemical String", "log10 of IC50"],
 "data": [
  ["COc1ccc2c(c1)[nH]c1c2c(F)cc2c(=O)c(C(=O)O)cn(C3CC3)c21", 1.68],
  ["O=C(O)c1cn(C2CC2)c2c(cc(F)c3c4ccc(F)cc4[nH]c32)c1=O", 1.45],
  ["O=C(O)c1cn(C2CC2)c2c(cc(F)c3c4ccccc4[nH]c32)c1=O", 1.54],
  ["COc1c(C)cc2c([nH]c3c2c(F)cc2c(=O)c(C(=O)O)cn(C4CC4)c23)c1C", 1.49],
  ["O=C(O)c1cn(C2CC2)c2c(cc(F)c3c2[nH]c2ccsc23)c1=O", 2.00],
  ["O=C(O)c1cn(C2CC2)c2cc(N3CCNCC3)c(F)cc2c1=O", 0.66]
]}

What does the record list as log10 of IC50 for "COc1c(N2C[C@@H]3CCCN[C@@H]3C2)c(F)cc2c(=O)c(C(=O)O)cn(C3CC3)c12" ?
0.70

The measured values listed here are drawn from ChEMBL document CHEMBL1212890.
